- System: BHK-21 cells
- Protocol details: Cytotoxicity CC100 in BHK-21 cells (6 days)
Value type: CC100 (100% cytotoxic concentration) (µg/mL)
I only need the number, in µg/mL, no unit after it.

Look over these answered cases.
Ask | Tell me measured CC100 (100% cytotoxic concentration) for CC(C)c1cc2c(cc1O)[C@@]1(C)CCC[C@@](C)(C(=O)O)[C@@H]1CC2 [Compound 19a, 12-hydroxydehydroabietic acid] please.
Reply | 12.5

Ask | Tell me measured CC100 (100% cytotoxic concentration) for COC(=O)[C@@]1(C)CCC[C@]2(C)c3cc(O)c(C(C)C)cc3C(=O)C[C@@H]12 [Compound 22b] please.
Reply | 12.5

Ask | Tell me measured CC100 (100% cytotoxic concentration) for COC(=O)[C@]1(C)CCC[C@]2(C)c3cc(C(C)=O)c(C(C)C)cc3CC[C@@H]12 [Compound 15a] please.
Reply | 25

More entries:
Ask | Tell me measured CC100 (100% cytotoxic concentration) for COC(=O)[C@@]1(C)CCC[C@]2(C)c3cc(O)c(C(C)C)cc3CC[C@@H]12 [Compound 18b] please.
Reply | 50

Ask | Tell me measured CC100 (100% cytotoxic concentration) for COC(=O)[C@@]1(C)CCC[C@]2(C)c3cc(C(C)=O)c(C(C)C)cc3CC[C@@H]12 [Compound 15b] please.
Reply | 50

Ask | Tell me measured CC100 (100% cytotoxic concentration) for CC(C)c1cc2c(cc1O)[C@@]1(C)CCC[C@@](C)(CO)[C@@H]1CC2=O [Compound 21a] please.
Reply | 12.5

Ask | Tell me measured CC100 (100% cytotoxic concentration) for CC(C)c1ccc2c(c1)CC[C@H]1C(C)(C(=O)O)CCC[C@]21C (stereo partly drawn) [Compound 13] please.
Reply | 50

Ask | Tell me measured CC100 (100% cytotoxic concentration) for CC(C)c1cc2c(cc1O)[C@@]1(C)CCC[C@](C)(CO)[C@@H]1CC2=O [Compound 21b] please.
Reply | 25

Ask | Tell me measured CC100 (100% cytotoxic concentration) for COC(=O)[C@]1(C)CCC[C@]2(C)c3cc(OC(C)=O)c(C(C)C)cc3CC[C@@H]12 [Compound 16a] please.
Reply | 50

Ask | Tell me measured CC100 (100% cytotoxic concentration) for COC(=O)[C@]1(C)CCC[C@]2(C)c3cc(O)c(C(C)C)cc3CC[C@@H]12 [Compound 18a] please.
Reply | 25

====

- Tested on: DENV-2 (Dengue virus type 2)
- Protocol details: Plaque reduction assay (PFU), DENV-2 in BHK21
- Assay type: cell-based
- Cond: DENV-2, BHK21, PFU/well 150 ± 25
Value type: % inhibition (PFU) (%)
I only need the number, in %, no unit after it.

Ask | Tell me measured % inhibition (PFU) for CC(C)c1cc2c(cc1O)[C@@]1(C)CCC[C@](C)(C(=O)O)[C@@H]1CC2 [Compound 19b, lambertic acid] please.
Reply | 35

Ask | Tell me measured % inhibition (PFU) for COC(=O)[C@]1(C)CCC[C@]2(C)c3ccc(C(C)C)c(O)c3CC[C@@H]12 [Compound 24, methyl 14-hydroxy-dehydroabietate] please.
Reply | 48

Ask | Tell me measured % inhibition (PFU) for CC(C)c1cc2c(cc1O)[C@@]1(C)CCC[C@@](C)(CN3C(=O)c4ccccc4C3=O)[C@@H]1CC2 please.
Reply | 91

Ask | Tell me measured % inhibition (PFU) for CC(C)c1cc2c(cc1O)[C@@]1(C)CCCC(C)(C)[C@@H]1CC2 [Compound 5, (+)-ferruginol] please.
Reply | 28

Ask | Tell me measured % inhibition (PFU) for CC(C)c1ccc2c(c1)CC[C@H]1C(C)(CO)CCC[C@]21C (some centres unmarked) please.
Reply | 30

Ask | Tell me measured % inhibition (PFU) for COC(=O)[C@@]1(C)CCC[C@]2(C)c3cc(O)c(C(C)C)cc3CC[C@@H]12 [Compound 18b] please.
Reply | 51

More entries:
Ask | Tell me measured % inhibition (PFU) for COC(=O)[C@@]1(C)CCC[C@]2(C)c3cc(C(C)=O)c(C(C)C)cc3CC[C@@H]12 [Compound 15b] please.
Reply | 68

Ask | Tell me measured % inhibition (PFU) for CC(C)c1cc2c(cc1O)[C@@]1(C)CCC[C@@](C)(CO)[C@@H]1CC2 [Compound 20a, 18-hydroxyferruginol] please.
Reply | 25
